This section presents compounds with their documented GI50 values.
test system: OVCAR-3; experiment: NCI tumour cell line growth inhibition, 48 h
Activity calls are given as the source filed them. No stated cut-off is given here; in the data, active = GI50 up to about 1.1 µM and inactive = higher.

| compound | GI50 |
| --- | --- |
| N#CC1Nc2ccccc2[C@@H](O)C1O (some centres undefined) | > 100 µM (inactive) |

Ask: Write down the reported GI50 of CC1(c2nc3ccccc3[nH]2)CCC(C(N)=O)C(C)(C)O1 (centres undefined) , test system: OVCAR-3.
Reply: > 100 µM (inactive)

Ask: Write down the reported GI50 of CCCCCCCCCCCCC(O)C1CCC(C(O)CCCCC(O)CCCCCC2CC(CC(C)=O)C(=O)O2)O1 (centres undefined) , test system: OVCAR-3.
Reply: 2.09 µM (inactive)

Ask: Write down the reported GI50 of CC(C)C1=CC23CCC4C(C)(C(=O)O)CCCC4(C)C2CC1C1C(=O)N(c2ccc(Cc4ccc(N5C(=O)C6C7CC8C9(C)CCCC(C)(C(=O)O)C9CCC8(C=C7C(C)C)C6C5=O)cc4)cc2)C(=O)C13 (centres undefined) , test system: OVCAR-3.
Reply: 10.7 µM (inactive)
